pIC50 for assorted compounds
System: CEM cells HIV-1 protection, formazan growth assay
Experiment: NCI AIDS Antiviral Assay
Conditions: measured here: growth of uninfected CEM cells
pIC50: −log10 of the molar value.
MEASUREMENT_KIND: pIC50

>  <COMPOUND>
O=C(C[C@@H]1CCCN2CCCC[C@H]12)N1c2ccccc2Sc2ccc(Cl)cc21

>  <VALUE_OPERATOR>
=

>  <QUANTITATIVE_RESULT>
4.68

$$$$
>  <COMPOUND>
NC(=O)N(O)c1cccc(Br)c1

>  <VALUE_OPERATOR>
=

>  <QUANTITATIVE_RESULT>
3.84

$$$$
>  <COMPOUND>
O=[N+]([O-])c1ccc2nc(/C=C(\O)c3ccc(Cl)cc3)c(/C=C(\O)c3ccc(Cl)cc3)nc2c1

>  <VALUE_OPERATOR>
=

>  <QUANTITATIVE_RESULT>
4.05

$$$$
>  <COMPOUND>
Cc1ccc(Cc2n[nH]c(=O)[nH]2)cc1

>  <VALUE_OPERATOR>
<

>  <QUANTITATIVE_RESULT>
3.70

$$$$
>  <COMPOUND>
COc1ccc(NC(=O)/C(=N\NC(=O)C[n+]2ccccc2)c2c(O)c3ccc(O)cc3oc2=O)c([N+](=O)[O-])c1

>  <VALUE_OPERATOR>
=

>  <QUANTITATIVE_RESULT>
4.14

$$$$
>  <COMPOUND>
C[C@H]1Oc2cc(O)c3ccc(=O)oc3c2C(=O)[C@@H]1C

>  <VALUE_OPERATOR>
=

>  <QUANTITATIVE_RESULT>
4.77

$$$$
>  <COMPOUND>
S=C(S)N1CCOCC1

>  <VALUE_OPERATOR>
=

>  <QUANTITATIVE_RESULT>
6.14

$$$$
>  <COMPOUND>
Cc1cc(=O)n2cn[nH]c2n1

>  <VALUE_OPERATOR>
<

>  <QUANTITATIVE_RESULT>
3.70

$$$$
>  <COMPOUND>
CCOC(=O)/C=C(\CCOC1CCCCO1)[Si](C)(C)c1ccccc1 (configuration not stated)

>  <VALUE_OPERATOR>
<

>  <QUANTITATIVE_RESULT>
4.70

$$$$
>  <COMPOUND>
O=P(O)(O)OP(=O)(O)O.[NH-]CC[NH-].[NH-]CC[NH-].[Pd+2].[Pd+2]

>  <VALUE_OPERATOR>
=

>  <QUANTITATIVE_RESULT>
3.99

$$$$
>  <COMPOUND>
O=[N+]([O-])c1cccc(N=Cc2ccc(O)cc2)c1

>  <VALUE_OPERATOR>
=

>  <QUANTITATIVE_RESULT>
3.74

$$$$
>  <COMPOUND>
COc1ccc(N2C(=O)C(N3C(=O)C=CC3=O)C2C=O)cc1 (configuration not stated)

>  <VALUE_OPERATOR>
<

>  <QUANTITATIVE_RESULT>
3.78

$$$$
>  <COMPOUND>
CC(C)N1CN(c2ccccc2)C2(CCN(CCCC(=O)c3ccc(F)cc3)CC2)C1=O

>  <VALUE_OPERATOR>
=

>  <QUANTITATIVE_RESULT>
5.24

$$$$
>  <COMPOUND>
CO[C@H](c1ccccc1)[C@H](C)N(C)c1ccc2ccccc2c1C1=NC(C)(C)CO1

>  <VALUE_OPERATOR>
<

>  <QUANTITATIVE_RESULT>
4.19

$$$$
>  <COMPOUND>
O=C(O)Cc1cccc(=O)c(O)c1C(=O)O

>  <VALUE_OPERATOR>
=

>  <QUANTITATIVE_RESULT>
3.89

$$$$
>  <COMPOUND>
COc1cc(CNC(=O)CCCCCCCCCCSC#N)ccc1O

>  <VALUE_OPERATOR>
=

>  <QUANTITATIVE_RESULT>
4.56

$$$$
>  <COMPOUND>
CC1OC(OC2CC(O)(C(=O)CO)Cc3c(O)c4c(c(O)c32)C(=O)c2ccccc2C4=O)CC(N)C1O (configuration not stated)

>  <VALUE_OPERATOR>
=

>  <QUANTITATIVE_RESULT>
7.20

$$$$
>  <COMPOUND>
CCN=C(C#N)NCC

>  <VALUE_OPERATOR>
=

>  <QUANTITATIVE_RESULT>
3.59

$$$$
>  <COMPOUND>
CC(Cc1ccccc1)NC1=NCCO1 (configuration not stated)

>  <VALUE_OPERATOR>
=

>  <QUANTITATIVE_RESULT>
3.84

$$$$
>  <COMPOUND>
FC(F)(F)c1cccc(COCCN2CCN(Cc3cccc(C(F)(F)F)c3)CC2)c1

>  <VALUE_OPERATOR>
=

>  <QUANTITATIVE_RESULT>
4.74

$$$$
>  <COMPOUND>
CC(=O)OCC(OC(C)=O)C(OC(C)=O)C(/C=N\Nc1nc2ccccc2c(=O)[nH]1)=N\Nc1nc2ccccc2c(=O)[nH]1 (configuration not stated)

>  <VALUE_OPERATOR>
<

>  <QUANTITATIVE_RESULT>
3.70

$$$$
>  <COMPOUND>
Oc1c([Si](c2ccccc2)(c2ccccc2)c2ccccc2)cc2ccccc2c1-c1c(O)c([Si](c2ccccc2)(c2ccccc2)c2ccccc2)cc2ccccc12

>  <VALUE_OPERATOR>
<

>  <QUANTITATIVE_RESULT>
4.30

$$$$
